Parameter: IC50. Scope: all listed entries.
Target: ACC1 (Homo sapiens)
Construct: purchased BPS bioscience
Assay: In vitro inhibition of ACC1 activity, ADP-Glo Kinase Analysis
Type: biochemical
Conditions: 1 nM ACC1, 10 μM acetyl-CoA, 20 μM ATP
From the text: ADP-Glo™ Kinase Analysis Kit (Promega) is used for the in vitro analysis of the inhibitory effect of the present compound on ACC1 or ACC2. ADP-Glo™ Kinase Analysis is a kinase detection analysis of luminescence method. […] ADP is quantified by detecting the light signal, thus the enzyme activity can be measured by quantification of the ADP amount produced during the enzyme reaction. […] g. The chemiluminescence signal was detected with Perkin Elmer EnVision 2104. […]

Bench note, ACC1 (Homo sapiens): COc1ccccc1[C@H](CN1c2sc(-c3ncco3)c(C)c2C(=O)[C@]2(C[C@H](C(N)=O)C2)C1=O)OC1CCOCC1 , IC50 reads < 10 nM

Bench note, ACC1 (Homo sapiens): COc1ccccc1[C@H](CN1C(=O)C2(CCN(C(=O)OC(C)(C)C)CC2)C(=O)c2c1sc(-c1ncco1)c2C)OC1CCOCC1 , IC50 reads 10 to 100 nM

Bench note, ACC1 (Homo sapiens): COc1ccccc1[C@H](CN1C(=O)C2(CCN(C(=O)NCCO)CC2)C(=O)c2c1sc(-c1ncco1)c2C)OC1CCOCC1 , IC50 reads < 10 nM

Bench note, ACC1 (Homo sapiens): COc1ccccc1C(CN1C(=O)C2(CCC(C(=O)O)C2)C(=O)c2c1sc(-c1ncco1)c2C)OC1CCOCC1 (mixture of isomers) [Compound 5x] , IC50 reads < 10 nM

Bench note, ACC1 (Homo sapiens): Cc1c(-c2ncco2)sc2c1C(=O)C1(CCC1)C(=O)N2CC(OC1CCOCC1)c1ccccc1 (racemic) , IC50 reads > 500 nM

Further cases:
Bench note, ACC1 (Homo sapiens): CNC(=O)[C@H]1C[C@@]2(C1)C(=O)c1c(sc(-c3ncco3)c1C)N(C[C@H](OC1CCOCC1)c1ccccc1OC)C2=O , IC50 reads < 10 nM

Bench note, ACC1 (Homo sapiens): COc1ccccc1[C@H](CN1c2sc(-c3ncco3)c(C)c2C(=O)[C@]2(C[C@H](C(=O)N[C@@H](C)C(=O)O)C2)C1=O)OC1CCOCC1 , IC50 reads < 10 nM

Bench note, ACC1 (Homo sapiens): COc1ccccc1C(CN1C(=O)C2(CC(C(=O)O)C2)C(=O)c2c1sc(-c1ncco1)c2C)OC1CCOCC1 (single isomer, unassigned) [Compound 8a] , IC50 reads 10 to 100 nM

Bench note, ACC1 (Homo sapiens): COc1ccccc1C(CN1C(=O)C2(CC(C(=O)O)C2)C(=O)c2c1sc(-c1ncco1)c2C)OC1CCOCC1 (single isomer, unassigned) [Compound 8d] , IC50 reads < 10 nM

Bench note, ACC1 (Homo sapiens): CNC(=O)N1CCC2(CC1)C(=O)c1c(sc(-c3ncco3)c1C)N(C[C@H](OC1CCOCC1)c1ccccc1OC)C2=O , IC50 reads < 10 nM

Bench note, ACC1 (Homo sapiens): COc1ccccc1C(CN1C(=O)C2(CCC(C(=O)O)C2)C(=O)c2c1sc(-c1ncco1)c2C)OC1CCOCC1 (mixture of isomers) [Compound 5e] , IC50 reads 10 to 100 nM

Bench note, ACC1 (Homo sapiens): COC(=O)CNC(=O)[C@H]1C[C@@]2(C1)C(=O)c1c(sc(-c3ncco3)c1C)N(C[C@H](OC1CCOCC1)c1ccccc1OC)C2=O , IC50 reads < 10 nM

Bench note, ACC1 (Homo sapiens): COc1ccccc1[C@H](CN1C(=O)C2(CCN(C(=O)C(=O)O)CC2)C(=O)c2c1sc(-c1ncco1)c2C)OC1CCOCC1 , IC50 reads < 10 nM
